# Tested on: c-Src
# Experiment Description: phosphorylation enrichment, bacterial display (enrichment ratio); higher = better substrate or ligand; peptides without Tyr show the background;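 also: 11-residue human phosphosite peptides and single-mutation variants displayed on the E. coli surface, counted by deep sequencing, each peptide's frequency after selection divided by its frequency in the unselected input library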;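 also: frequency after pTyr selection over input frequency; kinase dosed for 20-30% of maximal phosphorylation in three min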
Each entry gets no (0) if its phosphorylation enrichment stays under 0.5, and yes (1) if its phosphorylation enrichment is 0.5 or above.

>>> group_label("NKEAIYSGFIR [SMCHD1_Y283_YF]")
"yes (1)"
>>> group_label("KNKELYSDPFD [PDE10A_Y300_L303P]")
"yes (1)"
>>> group_label("QHVPDYRQNVY [PCDHGA1_Y890]")
"yes (1)"
>>> group_label("VHYLVYHHHHH [CACNA1H_Y519_H516Y]")
"yes (1)"
>>> group_label("EEQKRYYNAMK [SCN5A_Y1494_K1493R]")
"no (0)"
>>> group_label("RGDCTYAPLLG [AR_Y269_M268T]")
"yes (1)"
>>> group_label("DSFSSYCNAVA [SLC20A2_Y436_YF]")
"yes (1)"
>>> group_label("FGGTVYHSPVS [PRC1_Y511]")
"yes (1)"
>>> group_label("HPWPRYTTRAP [FNDC1_Y1281_Q1280R]")
"yes (1)"
>>> group_label("AAVLNYKAGRD [GRIN2A_Y737]")
"no (0)"

Hi team, for QLAPQYTYTQG [FLNA_Y1761_A1764T] , is the recorded phosphorylation enrichment at or above 0.5?
yes (1)

* * *

Listed sequences paired with reported phosphorylation enrichment
# Tgt: EPHB2 (UniProt P29323)
# Sequence (P29323 whole entry, looked up): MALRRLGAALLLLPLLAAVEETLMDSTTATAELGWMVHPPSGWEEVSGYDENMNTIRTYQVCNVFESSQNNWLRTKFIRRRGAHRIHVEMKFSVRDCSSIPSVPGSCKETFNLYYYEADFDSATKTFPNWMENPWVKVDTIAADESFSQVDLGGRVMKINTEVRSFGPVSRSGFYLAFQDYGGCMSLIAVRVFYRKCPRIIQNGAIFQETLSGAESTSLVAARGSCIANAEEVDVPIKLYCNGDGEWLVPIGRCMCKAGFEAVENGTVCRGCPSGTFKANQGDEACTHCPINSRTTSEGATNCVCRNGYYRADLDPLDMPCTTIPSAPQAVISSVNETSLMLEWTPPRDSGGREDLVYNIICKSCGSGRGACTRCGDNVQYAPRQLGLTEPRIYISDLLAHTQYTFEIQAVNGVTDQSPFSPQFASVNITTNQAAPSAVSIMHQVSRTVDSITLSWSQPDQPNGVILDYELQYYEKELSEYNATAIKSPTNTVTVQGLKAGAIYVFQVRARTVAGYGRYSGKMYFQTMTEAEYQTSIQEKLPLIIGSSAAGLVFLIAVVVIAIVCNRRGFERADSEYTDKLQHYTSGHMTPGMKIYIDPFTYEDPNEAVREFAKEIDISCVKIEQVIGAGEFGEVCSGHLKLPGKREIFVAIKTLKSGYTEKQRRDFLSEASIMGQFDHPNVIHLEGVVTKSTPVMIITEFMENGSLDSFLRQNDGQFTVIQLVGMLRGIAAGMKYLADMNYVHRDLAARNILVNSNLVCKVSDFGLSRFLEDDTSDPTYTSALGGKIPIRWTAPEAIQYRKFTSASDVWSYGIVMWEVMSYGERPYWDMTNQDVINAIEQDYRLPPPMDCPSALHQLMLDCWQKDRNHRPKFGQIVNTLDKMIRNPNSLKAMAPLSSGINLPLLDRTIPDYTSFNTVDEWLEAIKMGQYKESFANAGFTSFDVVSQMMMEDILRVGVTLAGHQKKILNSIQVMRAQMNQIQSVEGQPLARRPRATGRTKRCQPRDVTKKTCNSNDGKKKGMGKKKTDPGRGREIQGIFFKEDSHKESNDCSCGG
# Experiment Description: phosphorylation enrichment, bacterial display (enrichment ratio); higher = better substrate or ligand; peptides without Tyr show the background
Keep it simple and answer with nothing but the number.

The sequence EMFNPCYGLFE [NEDD4L_Y679_Y679C] , when measured on EPHB2 (UniProt P29323), yielded phosphorylation enrichment of 0.689

The sequence FSQETYFRVSN [ABCD1_Y180_Q178E_YF] , when measured on EPHB2 (UniProt P29323), yielded phosphorylation enrichment of 0.706

The sequence WCKPLYFSCAV [MMS22L_Y28_P27L] , when measured on EPHB2 (UniProt P29323), yielded phosphorylation enrichment of 0.598

The sequence ERDYTYEELLN [EIF2S2_Y176] , when measured on EPHB2 (UniProt P29323), yielded phosphorylation enrichment of 0.718

The sequence EESREYDRLYE [PIK3R1_Y463_K459E] , when measured on EPHB2 (UniProt P29323), yielded phosphorylation enrichment of 0.7

The sequence IMICAYLLHRG [PTEN_Y138_V133I] , when measured on EPHB2 (UniProt P29323), yielded phosphorylation enrichment of 0.687

* * *

Listed sequences paired with reported phosphorylation enrichment
# Tgt: Fyn (UniProt P06241)
# Sequence (P06241 whole entry, looked up): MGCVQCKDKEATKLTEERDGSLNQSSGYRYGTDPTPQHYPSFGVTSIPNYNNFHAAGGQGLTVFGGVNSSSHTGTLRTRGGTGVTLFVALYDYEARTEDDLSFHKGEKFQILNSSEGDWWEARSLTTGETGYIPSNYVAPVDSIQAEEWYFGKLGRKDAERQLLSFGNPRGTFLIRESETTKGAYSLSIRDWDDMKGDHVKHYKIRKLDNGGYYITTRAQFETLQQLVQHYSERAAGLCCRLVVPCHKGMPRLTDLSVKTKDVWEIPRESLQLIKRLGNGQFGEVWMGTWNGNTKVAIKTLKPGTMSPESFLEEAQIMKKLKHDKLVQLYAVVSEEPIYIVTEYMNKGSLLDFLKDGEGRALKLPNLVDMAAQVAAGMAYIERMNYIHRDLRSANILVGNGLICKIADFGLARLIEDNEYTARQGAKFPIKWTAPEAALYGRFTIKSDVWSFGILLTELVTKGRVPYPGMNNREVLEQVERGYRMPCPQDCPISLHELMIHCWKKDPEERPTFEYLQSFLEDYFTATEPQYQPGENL
# Experiment Description: phosphorylation enrichment, bacterial display (enrichment ratio); higher = better substrate or ligand; peptides without Tyr show the background

Guide cases for phosphorylation enrichment, answers given:
>>> value_measured("EEGNPYFSSTR [MCCC2_Y520_A524T_YF]")
0.505
>>> value_measured("LSGFCYRLSDQ [PDCD6_Y124_G123C]")
0.928
>>> value_measured("YSSLGYPLPEG [ZSWIM4_Y87_P89L]")
2.63
>>> value_measured("SPQAHYRLSAF [ADAMTS9_Y100_S96P]")
0.425
>>> value_measured("GVFSRYFTTFD [CLCA1_Y661_YF]")
0.438
>>> value_measured("GNKENYGLPQP [BUB1_Y538]")
0.321
>>> value_measured("EATKGYPDDPT [G6PD_Y322_L323P]")
0.479
>>> value_measured("ITGNGYFFRVF [MYBPC3_Y1135_I1131T_YF]")
0.358

Record FFDANCDGKEF [MAPRE2_Y162_Y162C_YF] , field phosphorylation enrichment: 0.973

Record KTVQDYLKKFF [MMP8_Y36_E38K_YF] , field phosphorylation enrichment: 0.575

Record WCKPLYFSCAV [MMS22L_Y28_P27L] , field phosphorylation enrichment: 0.533

Record AAVLNYKAGRD [GRIN2A_Y737] , field phosphorylation enrichment: 0.397

Record QGFDTYFGYLL [ARSB_Y165_R160Q] , field phosphorylation enrichment: 9.48

Record VHYLVYHHHHH [CACNA1H_Y519_H516Y] , field phosphorylation enrichment: 0.537

Record KGEDFYCVTRH [FHL1_Y149_C153R] , field phosphorylation enrichment: 0.633

Value source: the supplement of paper PMC10065799
